Measured values drawn from patent US9023848B2 for this set.

assay: Kinetic solubility; assay type: physicochemical; conditions: pH 2, simulated gastric fluid, kinetic from dmso stock
REPORTED METRIC: solubility kinetic

Looking for the measured solubility kinetic of Cc1nc2ccc(NC3Cc4ccccc4C3)cc2c(-c2ccccc2)c1C(=O)O , can you help?
25 to 50 µg/mL

====

assay: logD7.4; assay type: physicochemical; conditions: pH 7.4
REPORTED METRIC: logD
Answers are plain numbers.

Looking for the measured logD of Cc1nc2ccc(NC3Cc4ccccc4C3)cc2c(-c2ccccc2)c1C(=O)O , can you help?
2
